Reference for the values: PubChem BioAssay

# Test system: glycogen synthase kinase-3 (GSK3A per assay name; protocol says GSK3B)
# test_method_notes: GSK3 binders on small-molecule microarrays, primary screen, biochemical, small-molecule microarray, 635 nm fluorescence, GSK3A (AID 1103); further: the record names both GSK3A and GSK3B
# measurement_conditions: small-molecule microarray binding, fluorescence 635 nm; higher = more signal
reported_metric: composite z-score
// response body must contain only the number

# annotated cases, reported composite z-score shown
• O=C1OCCC/C=C\[C@H]2OC34C=CCN(Cc5ccccc5)C(=O)[C@H]3N(CCO)C(=O)[C@@H]4C12 (stereo not given in full) = 0.124
• COc1cc2c(cc1OC)CN(C(=O)[C@@H]1[C@H]3C(=O)O[C@H](c4ccccc4)[C@H](c4ccccc4)N3[C@H](c3ccc(O)cc3)[C@@]13C(=O)Nc1ccc(C#CC4=CCCCC4)cc13)CC2 = 1.28
• COc1ccc([Si](C)(C)[C@@H]2[C@@H](CC(=O)N(CCO)Cc3ccccc3)O[C@]3(C(=O)N(Cc4cccc(I)c4)c4ccccc43)[C@H]2C)cc1 = 0.766
• CN(C)CCCCNC(=O)[C@H]1C[C@H]2C(=O)N[C@@H](CCCCN(C)C)C(=O)N2[C@H]1c1ccc(O)cc1 = -0.0777
• CCOC(=O)C[C@H]1[C@H](OC(=O)Cc2ccc3c(c2)OCO3)[C@@H](NC(=O)CC(C)C)c2cc(OCCCO)ccc2N1C(=O)c1ccc2ccccc2n1 = 0.614

Asked: Please look up its composite z-score: `COCCOC(=O)N1C(=O)[C@@]2(c3cc(C#CCC(C(=O)OC)C(=O)OC)ccc31)[C@H](C(=O)N1CCc3cc(OC)c(OC)cc3C1)[C@H]1C(=O)O[C@H](c3ccccc3)[C@H](c3ccccc3)N1[C@@H]2c1ccccc1OCCO`
Given back: 1.31
